A collection of compounds and their measured TGI
# System: MDA-MB-231 breast
# methodNotes: NCI tumour cell line growth inhibition, 48 h

Completed entries (count: 2):
| compound | TGI |
| --- | --- |
| CC1(C)[C@@H]2C[C@H]1C(Cc1ccccc1C[C@H]1c3cc(-c4ccccn4)ncc3[C@H]3C[C@@H]1C3(C)C)c1cc(-c3ccccn3)ncc12 (stereo partly drawn) | > 68 µM |
| Cc1ccccc1N=Nc1ccc(N=Nc2c(O)ccc3cc(S(=O)(=O)O)cc(S(=O)(=O)O)c23)c(C)c1 | > 100 µM |

Turning now to a further compound:
I would be grateful if you could share the reported TGI for CN(C)CCCNC(=O)c1cc(NC(=O)CCCn2c3ccccc3c3ccccc32)cn1C .
> 100 µM

* * *

A collection of compounds and their measured TGI
# System: HL-60(TB) leukemia
# methodNotes: NCI tumour cell line growth inhibition, 48 h

Completed entries (count: 5):
| compound | assayTarget | TGI |
| --- | --- | --- |
| CCOC(=O)C1=C(C)N(Cc2ccc(Cl)cc2Cl)C2(O)C(OC)CC(=O)C3C(=O)N(c4ccccc4)C(=O)C132 (stereo unspecified) | HL-60(TB) leukemia | 6.9 µM |
| CCN(CC)CCNC(=O)c1ccccc1Nc1c(Cl)cccc1Cl | HL-60(TB) leukemia | 25.5 µM |
| N=c1nc(N)nc(N)n1-c1ccc(S(N)(=O)=O)cc1 | HL-60(TB) leukemia | > 100 µM |
| CC(=O)C1CC2(c3ccccc3)C(=O)c3ccccc3N2O1 (stereo unspecified) | HL-60(TB) leukemia | > 100 µM |
| COC(=O)/C=C\C1C(C(=O)OC)C2(C(=O)OC)CCC1(C(=O)OC)N2 (stereo unspecified) | HL-60(TB) leukemia | 6.47 µM |

Turning now to a further compound:
I would be grateful if you could share the reported TGI for CCCC(=O)C(CC)/C(CCC(=O)N(Cc1ccccc1)Cc1ccccc1)=N/NC(=O)C[N+](C)(C)C (stereo unspecified) .
> 100 µM

* * *

# Tested on: OVCAR-8 ovarian
# methodNotes: NCI tumour cell line growth inhibition, 48 h
valueType: GI50

Completed entries (count: 3):
| compound | experimentalValue |
| --- | --- |
| CCc1nc2cc(/C=C/C(=O)NO)c(F)cc2c(=O)n1CCc1ccccc1 | 0.753 µM |
| O=C(Oc1ccccc1Cl)c1cccnc1Nc1ccnc(C(F)(F)F)c1 | 14.7 µM |
| CC(=O)OC1CC(C)c2c1ncnc2N1CCN(C(=O)OC(C)(C)C)CC1 (stereo not given) | 54.3 µM |

I would be grateful if you could share the reported GI50 for Cc1cc2cc(Oc3ccnc(Nc4cccc(CS(=O)(=O)NCCN(C)C)c4)n3)ccc2[nH]1 .
15.8 µM

I would be grateful if you could share the reported GI50 for CCCCn1c(=O)c(/C=C/C(=O)/C=C/c2ccc(O)c(OC)c2)cc2ccc(Cl)cc21 .
2.47 µM

* * *

A collection of compounds and their measured TGI
# System: RPMI-8226 leukemia
# methodNotes: NCI tumour cell line growth inhibition, 48 h

Completed entries (count: 5):
| compound | TGI |
| --- | --- |
| COc1cc(C(C)c2cc3c(cc2OCCOCCOc2cc4c(cc2C(C)c2cc(OC)c(OC)c(OC)c2)OCO4)OCO3)cc(OC)c1OC (stereo unspecified) | > 100 µM |
| S=C(NNC1=NCCCCN1)Nc1ccccc1 | > 100 µM |
| C/C(=N\O)C(CN(C)C)C(c1ccccc1)c1c(O)c2ccccc2oc1=O (stereo unspecified) | > 100 µM |
| O=C(O)C1(C(=O)O)CCN(S(=O)(=O)c2ccccc2)CC1 | > 100 µM |
| COc1cc(C)c(N(C)C(=O)CN(C)C)cc1Nc1nc(Nc2cccc(F)c2C(N)=O)c2cc[nH]c2n1 | > 25 µM |

Turning now to a further compound:
Please tell me: TGI of COc1cc2c(cc1OC)C(C1(O)CCCCC1)NCC2 (stereo unspecified) , system RPMI-8226 leukemia?
> 100 µM

* * *

# System: OVCAR-5 ovarian
# methodNotes: NCI tumour cell line growth inhibition, 48 h
valueType: TGI

| molecule | experimentalValue |
| --- | --- |
| COc1ncnc2c1ncn2C/C(Br)=C(\Br)CCl | 15.2 µM |

Please tell me: TGI of COc1ccc(-c2c(N)n(-c3cc(OC)cc(OC)c3)c(=O)c3cc([N+](=O)[O-])ccc23)cc1 , system OVCAR-5 ovarian?
> 100 µM

Please tell me: TGI of C[C@@H]1O[C@@H]2OCC[C@@H]2C2=C1C(=O)c1ccccc1C2=O , system OVCAR-5 ovarian?
4.3 µM

Please tell me: TGI of CC(=O)OC1C(O)COC(Oc2c(C)c3c4c(c2O)[C@@H](C)CC[C@@H]4[C@@H](C)C[C@H]3C=C(C)C)C1O (stereo partly specified) , system OVCAR-5 ovarian?
47.9 µM

Please tell me: TGI of c1ccc(N=C2SC(c3ccccc3)CN2C23CC4CC(CC(C4)C2)C3)cc1 (stereo unspecified) , system OVCAR-5 ovarian?
> 100 µM

Please tell me: TGI of N#CC1(C#N)C(c2ccccc2)NC23CCCCC2C1(C#N)C(=O)N3 (stereo unspecified) , system OVCAR-5 ovarian?
> 100 µM

Please tell me: TGI of O=C(O/N=C1/CCC/C1=C\c1ccccc1)c1ccc(Cl)cc1 , system OVCAR-5 ovarian?
> 100 µM

Please tell me: TGI of CCCCNC(=O)C1=C(C)NC(C)=C(C(=O)NCCCC)C1 , system OVCAR-5 ovarian?
> 100 µM

Please tell me: TGI of N[C@H]1CCc2c1nc1c(c2-c2ccccc2)CC[C@@H]1N , system OVCAR-5 ovarian?
59.7 µM

Please tell me: TGI of O=[N+]([O-])/C(Cl)=C(\Sc1ccccc1)C(Cl)=C(Cl)Cl , system OVCAR-5 ovarian?
3.66 µM

Please tell me: TGI of CN(C)CCCNC(=O)c1cc(NC(=O)CCCn2c3ccccc3c3ccccc32)cn1C , system OVCAR-5 ovarian?
> 100 µM

Please tell me: TGI of O=C(/C=C/c1ccccc1)c1ccc(O)c(CN2CCN(c3cc4c(cc3F)c(=O)c(C(=O)O)cn4C3CC3)CC2)c1 , system OVCAR-5 ovarian?
> 100 µM

Please tell me: TGI of CCC(=O)NCC1(c2c[nH]c3ccccc23)SCCS1 , system OVCAR-5 ovarian?
> 100 µM

* * *

# Tested on: UACC-62 melanoma
# methodNotes: NCI tumour cell line growth inhibition, 48 h
valueType: TGI

Completed entries (count: 2):
| compound | experimentalValue |
| --- | --- |
| COc1ccc(CCNC(=O)Cc2ccccc2CCO)cc1OC | > 100 µM |
| COC(=O)C1=C(C(=O)OC)C2(/N=C(\Nc3ccccc3)c3ccccc3)N(c3ccc(OC)cc3)CC(c3ccccc3)N2O1 (stereo not drawn) | > 100 µM |

Turning now to a further compound:
I would be grateful if you could share the reported TGI for CC(=O)N1C(=O)C(=O)c2cc(Cl)ccc21 .
> 100 µM

* * *

# Test system: SNB-75 CNS
# methodNotes: NCI tumour cell line growth inhibition, 48 h
valueType: TGI

I would be grateful if you could share the reported TGI for O=c1[nH]nc2c3n[nH]c(=O)n3c3ccccc3n12 .
> 100 µM

I would be grateful if you could share the reported TGI for CCC(=O)NCC1(c2c[nH]c3ccccc23)SCCS1 .
> 100 µM

I would be grateful if you could share the reported TGI for C/C(=C\c1ccccc1)C(O)S(=O)(=O)O (stereo not drawn) .
> 100 µM

* * *

# Tested on: K-562 leukemia
# methodNotes: NCI tumour cell line growth inhibition, 48 h
A collection of compounds and their measured TGI

Completed entries (count: 2):
| compound | TGI |
| --- | --- |
| O=C(/C=C/c1ccccc1)c1ccc(O)c(CN2CCN(c3cc4c(cc3F)c(=O)c(C(=O)O)cn4C3CC3)CC2)c1 | > 100 µM |
| COc1ccc(/C=C2/CCOC2=O)cc1 | > 100 µM |

Turning now to a further compound:
I would be grateful if you could share the reported TGI for CNC1=C(Br)C(=O)C2=C(C1=O)C1C3=C(C(=O)C=CC3=O)C2c2ccccc21 (stereo not drawn) .
> 23.7 µM

* * *

# Tested on: A549 NSCLC
# methodNotes: NCI tumour cell line growth inhibition, 48 h
valueType: TGI

Completed entries (count: 3):
| molecularString | TGI |
| --- | --- |
| COc1ccc(-c2ccc(=O)oc2-c2cc(OC)c(OC)c(OC)c2)cc1O | > 100 µM |
| O=c1c2cc(-c3ccccc3)sc2nc2sc(-c3ccccc3)nn12 | > 100 µM |
| Cc1cc(Cl)ccc1OCC(=O)Oc1c(Cl)c(Cl)c(Cl)c(Cl)c1Cl | 66.3 µM |

Please tell me: TGI of O=C(CN1CCOCC1)NC1=Nc2ncccc2C(=O)NN1 , system A549 NSCLC?
> 10 µM

Please tell me: TGI of O=C(CCNC(=O)OCc1ccccc1)OCCCNC(=O)OCc1ccccc1 , system A549 NSCLC?
> 100 µM
